target: Cytochrome P450 2D6 (Homo sapiens, UniProt P10635); further: in other assays of this panel Not Active means under 50% inhibition at 10 µM
Sequence (P10635 whole entry): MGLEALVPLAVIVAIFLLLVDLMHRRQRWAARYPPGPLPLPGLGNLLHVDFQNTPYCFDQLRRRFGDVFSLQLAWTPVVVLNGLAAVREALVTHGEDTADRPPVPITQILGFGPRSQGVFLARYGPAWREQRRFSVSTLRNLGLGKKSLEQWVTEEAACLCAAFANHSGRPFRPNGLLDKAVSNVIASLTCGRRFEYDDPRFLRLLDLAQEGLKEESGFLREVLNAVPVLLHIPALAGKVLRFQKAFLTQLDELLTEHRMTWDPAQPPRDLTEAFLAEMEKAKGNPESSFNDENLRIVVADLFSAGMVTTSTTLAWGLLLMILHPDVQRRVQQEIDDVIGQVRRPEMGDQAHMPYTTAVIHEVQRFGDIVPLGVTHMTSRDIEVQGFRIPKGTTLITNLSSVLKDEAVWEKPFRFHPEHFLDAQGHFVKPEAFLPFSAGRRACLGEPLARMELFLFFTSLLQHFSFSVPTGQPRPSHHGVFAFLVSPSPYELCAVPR
pIC50: −log10 of the molar value.
endpointLabel: pIC50

smilesstr=COc1cc(N)nc2[nH]c(-c3ccc(F)cc3)c(-c3ccncc3)c12 testedon="Cytochrome P450 2D6 (Homo sapiens, UniProt P10635)" endpointlabel=pIC50 assayresult=6.70

---

biological target: Melanocortin receptor 4 (Homo sapiens, UniProt P32245); type: cell membranes, Membrane; conditions: hek293; further: in other assays of this panel Not Active means under 50% inhibition at 10 µM
Sequence (P32245 whole entry): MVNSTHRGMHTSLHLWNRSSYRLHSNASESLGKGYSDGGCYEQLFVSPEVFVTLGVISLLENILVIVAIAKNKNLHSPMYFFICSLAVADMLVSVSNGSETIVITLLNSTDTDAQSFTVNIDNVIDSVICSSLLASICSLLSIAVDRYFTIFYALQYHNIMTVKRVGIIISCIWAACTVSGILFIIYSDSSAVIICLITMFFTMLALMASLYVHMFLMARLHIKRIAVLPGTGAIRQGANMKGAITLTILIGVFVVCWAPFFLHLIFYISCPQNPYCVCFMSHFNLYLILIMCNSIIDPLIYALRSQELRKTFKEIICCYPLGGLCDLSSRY
endpointLabel: IC50

compound="CC(C)C[C@H]1C(=O)N2CCC[C@H]2[C@]2(O)O[C@](NC(=O)[C@@H]3C=C4c5cccc6[nH]c(Br)c(c56)C[C@H]4N(C)C3)(C(C)C)C(=O)N12 [BROMOCRIPTINE]" testedon="Melanocortin receptor 4 (Homo sapiens, UniProt P32245)" assayresult="Not Active"
compound="CC(=O)O[C@]1(C(C)=O)CC[C@H]2[C@@H]3C=C(Cl)C4=CC(=O)[C@@H]5C[C@@H]5[C@]4(C)[C@H]3CC[C@@]21C [CYPROTERONE ACETATE]" testedon="Melanocortin receptor 4 (Homo sapiens, UniProt P32245)" assayresult="Not Active"
compound=CCCc1nn(C)c2c(=O)[nH]c(-c3cc(S(=O)(=O)N4CCN(C)CC4)ccc3OCC)nc12 testedon="Melanocortin receptor 4 (Homo sapiens, UniProt P32245)" assayresult="Not Active"
compound="CC(C(=O)O)c1ccc(-c2ccccc2)c(F)c1 (stereo unspecified) [FLURBIPROFEN]" testedon="Melanocortin receptor 4 (Homo sapiens, UniProt P32245)" assayresult="Not Active"
compound="Nc1ccc(S(=O)(=O)Nc2nccs2)cc1 [SULFATHIAZOLE]" testedon="Melanocortin receptor 4 (Homo sapiens, UniProt P32245)" assayresult="Not Active"
compound="C=C1/C(=C\\C=C2/CCC[C@]3(C)[C@@H]([C@H](C)CCCC(C)C)CC[C@@H]23)C[C@@H](O)C[C@@H]1O [ALFACALCIDOL]" testedon="Melanocortin receptor 4 (Homo sapiens, UniProt P32245)" assayresult="Not Active"
compound="CC(CCc1ccc(O)cc1)NCCc1ccc(O)c(O)c1 (stereo unspecified) [DOBUTAMINE]" testedon="Melanocortin receptor 4 (Homo sapiens, UniProt P32245)" assayresult="Not Active"
compound="Cc1c(F)c(N2CCNC(C)C2)cc2c1c(=O)c(C(=O)O)cn2C1CC1 (stereo unspecified) [GREPAFLOXACIN]" testedon="Melanocortin receptor 4 (Homo sapiens, UniProt P32245)" assayresult="Not Active"
compound="CCOC(=O)n1ccn(C)c1=S [CARBIMAZOLE]" testedon="Melanocortin receptor 4 (Homo sapiens, UniProt P32245)" assayresult="Not Active"
compound="CO[C@@]1(NC(=O)CSCC#N)C(=O)N2C(C(=O)O)=C(CSc3nnnn3C)CS[C@@H]21 [CEFMETAZOLE]" testedon="Melanocortin receptor 4 (Homo sapiens, UniProt P32245)" assayresult="Not Active"
compound="COc1cc(C(=O)NS(=O)(=O)c2ccccc2C)ccc1Cc1cn(C)c2ccc(NC(=O)OC3CCCC3)cc12 [ZAFIRLUKAST]" testedon="Melanocortin receptor 4 (Homo sapiens, UniProt P32245)" assayresult="Not Active"
compound="COc1ccccc1OCC(O)COC(N)=O (stereo unspecified) [METHOCARBAMOL]" testedon="Melanocortin receptor 4 (Homo sapiens, UniProt P32245)" assayresult="Not Active"
compound="O=C(O)c1cc(=O)c2c(OCC(O)COc3cccc4oc(C(=O)O)cc(=O)c34)cccc2o1 [CROMOLYN]" testedon="Melanocortin receptor 4 (Homo sapiens, UniProt P32245)" assayresult="Not Active"
compound="CN(C(=O)CCCOc1ccc2[nH]c(=O)ccc2c1)C1CCCCC1 [CILOSTAMIDE]" testedon="Melanocortin receptor 4 (Homo sapiens, UniProt P32245)" assayresult="Not Active"
compound="O=c1cc(-c2ccccc2)oc2ccc3ccccc3c12 [BETA-NAPHTHOFLAVONE]" testedon="Melanocortin receptor 4 (Homo sapiens, UniProt P32245)" assayresult="Not Active"
compound="CCc1oc2ccccc2c1C(=O)c1cc(Br)c(O)c(Br)c1 [BENZBROMARONE]" testedon="Melanocortin receptor 4 (Homo sapiens, UniProt P32245)" assayresult="Not Active"

---

biological target: Acetylcholinesterase (Homo sapiens, UniProt P22303); assay: DRUGMATRIX: Acetylcholinesterase enzyme inhibition (substrate: acetylthiocholine); assay type: cell-based, HEK293; settings: hek293; Not Active = under 50% inhibition at 10 µM
Sequence (P22303 whole entry): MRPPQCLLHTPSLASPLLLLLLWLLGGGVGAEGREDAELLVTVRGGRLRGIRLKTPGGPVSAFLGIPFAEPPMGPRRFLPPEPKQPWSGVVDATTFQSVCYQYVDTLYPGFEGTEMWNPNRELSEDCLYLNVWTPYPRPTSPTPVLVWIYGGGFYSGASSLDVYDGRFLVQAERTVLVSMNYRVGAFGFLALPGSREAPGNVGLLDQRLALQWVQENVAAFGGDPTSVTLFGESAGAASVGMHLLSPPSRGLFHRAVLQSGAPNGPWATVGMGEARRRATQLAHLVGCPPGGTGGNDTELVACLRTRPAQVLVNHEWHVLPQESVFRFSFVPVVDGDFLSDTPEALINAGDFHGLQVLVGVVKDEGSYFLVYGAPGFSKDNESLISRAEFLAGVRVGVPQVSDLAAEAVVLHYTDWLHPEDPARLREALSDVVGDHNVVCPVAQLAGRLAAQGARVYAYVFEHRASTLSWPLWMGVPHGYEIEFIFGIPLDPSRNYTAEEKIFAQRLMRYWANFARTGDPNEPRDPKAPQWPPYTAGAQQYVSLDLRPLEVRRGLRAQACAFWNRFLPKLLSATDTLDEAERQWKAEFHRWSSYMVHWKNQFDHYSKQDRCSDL
endpointLabel: IC50

compound=CC[C@H]1OC(=O)[C@H](C)[C@@H](O[C@H]2C[C@@](C)(OC)[C@@H](O)[C@H](C)O2)[C@H](C)[C@@H](O[C@@H]2O[C@H](C)C[C@H](N(C)C)[C@H]2O)[C@](C)(OC)C[C@@H](C)C(=O)[C@H](C)[C@@H](O)[C@]1(C)O endpointlabel=IC50 assayresult="Not Active"
compound="COC(=O)c1ccccc1O [METHYL SALICYLATE]" endpointlabel=IC50 assayresult="Not Active"
compound=C[C@@H]1CC[C@H]2[C@@H](C)C(=O)O[C@@H]3O[C@@]4(C)CC[C@@H]1[C@]32OO4 endpointlabel=IC50 assayresult="Not Active"

---

molecular target: C-C chemokine receptor type 2 (Homo sapiens, UniProt P41597); format: cell membranes, CHO-K1, Membrane; details: cho-k1; further: in other assays of this panel Not Active means under 50% inhibition at 10 µM
Sequence (P41597 whole entry): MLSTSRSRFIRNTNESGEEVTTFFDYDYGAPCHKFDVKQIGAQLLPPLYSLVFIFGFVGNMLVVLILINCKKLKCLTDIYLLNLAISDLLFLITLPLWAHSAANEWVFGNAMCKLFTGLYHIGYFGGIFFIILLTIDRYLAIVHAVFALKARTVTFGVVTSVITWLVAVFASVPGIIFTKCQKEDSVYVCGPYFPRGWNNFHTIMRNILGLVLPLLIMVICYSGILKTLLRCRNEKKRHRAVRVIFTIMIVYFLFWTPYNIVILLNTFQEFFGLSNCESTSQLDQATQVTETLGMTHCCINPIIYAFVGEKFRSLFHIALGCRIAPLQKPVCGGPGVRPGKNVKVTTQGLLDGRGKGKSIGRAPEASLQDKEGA
endpointLabel: IC50

compound=CC(=O)OCC(CCn1cnc2cnc(N)nc21)COC(C)=O assayresult="Not Active"
compound=NC[C@H]1O[C@H](O[C@H]2[C@H](O)[C@@H](O[C@H]3O[C@H](CO)[C@@H](O)[C@H](N)[C@H]3O)[C@H](N)C[C@@H]2N)[C@H](O)[C@@H](O)[C@@H]1O assayresult="Not Active"
compound=Nc1ccc(S(=O)(=O)Nc2nccs2)cc1 assayresult="Not Active"
compound=Cc1cn([C@H]2C[C@H](N=[N+]=[N-])[C@@H](CO)O2)c(=O)[nH]c1=O assayresult="Not Active"
compound="Cc1c(N(C)CS(=O)(=O)[O-])c(=O)n(-c2ccccc2)n1C.[Na+] [DIPYRONE SODIUM]" assayresult="Not Active"
compound=CCCCC1C(=O)N(c2ccccc2)N(c2ccccc2)C1=O assayresult="Not Active"
compound=NC[C@@H]1O[C@H](O[C@H]2[C@@H](O)[C@H](O[C@@H]3[C@@H](O)[C@H](N)C[C@H](N)[C@H]3O[C@H]3O[C@H](CN)[C@@H](O)[C@H](O)[C@H]3N)O[C@@H]2CO)[C@H](N)[C@@H](O)[C@@H]1O assayresult="Not Active"
compound=CC[C@H](C)C(=O)O[C@H]1C[C@H](O)C=C2C=C[C@H](C)[C@H](CC[C@@H](O)C[C@@H](O)CC(=O)O)[C@H]21 assayresult="Not Active"
compound="CN1C2CCCC1CC(NC(=O)c1nn(C)c3ccccc13)C2 (stereo unspecified)" assayresult="Not Active"
compound=Clc1cc2c(cc1Cl)Oc1cc(Cl)c(Cl)cc1O2 assayresult="Not Active"
compound=COc1cc(N)nc2[nH]c(-c3ccc(F)cc3)c(-c3ccncc3)c12 assayresult="Not Active"
compound=O=c1n(CCCN2CCN(c3cccc(Cl)c3)CC2)nc2ccccn12 assayresult="Not Active"
compound=C=C(C)[C@H]1Cc2c(ccc3c2O[C@@H]2COc4cc(OC)c(OC)cc4[C@@H]2C3=O)O1 assayresult="Not Active"
compound=C#CCN(C)[C@H](C)Cc1ccccc1 assayresult="Not Active"
compound=CC1=C(CC(=O)O)c2cc(F)ccc2/C1=C\c1ccc(S(C)(=O)=O)cc1 assayresult="Not Active"
compound=COc1ncnc(NS(=O)(=O)c2ccc(N)cc2)c1OC assayresult="Not Active"
compound="CC(C)(Oc1ccc(C2CC2(Cl)Cl)cc1)C(=O)O (stereo unspecified) [CIPROFIBRATE]" assayresult="Not Active"
compound=C=C(CC)C(=O)c1ccc(OCC(=O)O)c(Cl)c1Cl assayresult="Not Active"
compound=Cc1cccc(Nc2ccccc2C(=O)O)c1C assayresult="Not Active"
compound=CC[C@H]1OC(=O)[C@H](C)[C@@H](O[C@H]2C[C@@](C)(OC)[C@@H](O)[C@H](C)O2)[C@H](C)[C@@H](O[C@@H]2O[C@H](C)C[C@H](N(C)C)[C@H]2O)[C@](C)(O)C[C@@H](C)CN(C)[C@H](C)[C@@H](O)[C@]1(C)O assayresult="Not Active"
compound="CCN(CC)CC#CCOC(=O)C(O)(c1ccccc1)C1CCCCC1 (stereo unspecified)" assayresult="Not Active"
compound=C[C@@H](O)[C@H]1C(=O)N2C(C(=O)O)=C(S[C@@H]3CN[C@H](C(=O)N(C)C)C3)[C@H](C)[C@H]12 assayresult="Not Active"
compound=C[C@H]([C@](O)(Cn1cncn1)c1ccc(F)cc1F)S(C)(=O)=O assayresult="Not Active"
compound="O=P1(N(CCCl)CCCl)NCCCO1 (stereo unspecified) [CYCLOPHOSPHAMIDE ANHYDROUS]" assayresult="Not Active"
compound="Cc1cnc(C(=O)NCCc2ccc(S(=O)(=O)NC(=O)NC3CCCCC3)cc2)cn1 [GLIPIZIDE]" assayresult="Not Active"
compound=COc1cc(CNC(=O)CCCC/C=C/C(C)C)ccc1O assayresult="Not Active"
compound="CN1C[C@H](C(=O)N[C@]2(C)O[C@@]3(O)[C@@H]4CCCN4C(=O)[C@H](Cc4ccccc4)N3C2=O)C[C@@H]2c3cccc4[nH]cc(c34)C[C@H]21 [DIHYDROERGOTAMINE]" assayresult="Not Active"
compound=CS(=O)(=O)OCCCCOS(C)(=O)=O assayresult="Not Active"
compound=COc1ccc(/C=C/C(=O)Nc2ccccc2C(=O)O)cc1OC assayresult="Not Active"
compound="CC(=O)O[C@H]1C[C@@H]2CC[C@@H]3[C@H](CC[C@@]4(C)[C@H]3C[C@H]([N+]3(C)CCCCC3)[C@@H]4OC(C)=O)[C@@]2(C)C[C@@H]1N1CCCCC1.[Br-] [VECURONIUM BROMIDE]" assayresult="Not Active"
compound=CCCc1nn(C)c2c(=O)[nH]c(-c3cc(S(=O)(=O)N4CCN(C)CC4)ccc3OCC)nc12 assayresult="Not Active"
